- test: Acute toxicity
- condition.parameters: mouse, in vivo; oral; mice weighing 18 to 22 g

| compound | unit.label | LD50 |
| --- | --- | --- |
| CC(=O)N1c2ccccc2-c2c([N+](=O)[O-])cnn2C1C (stereo not drawn) | mg/kg | 2000 |
| CC(=O)Nc1cnn2c1-c1ccccc1N(C(C)=O)C2C (stereo not drawn) | mg/kg | 2000 |
| CC(=O)Nc1cnn2c(C)nc3ccccc3c12 | mg/kg | 1800 |
| CC(=O)N1c2ccccc2-c2c([N+](=O)[O-])cnn2C1(C)C | mg/kg | 2000 |
| Cc1nc2ccccc2c2c([N+](=O)[O-])cnn12 | mg/kg | 2000 |
| CC(=O)Nc1cnn2c1-c1ccccc1NC2(C)C | mg/kg | 2000 |

----------
- Test system: acetic acid writhing
- test: Acetic acid writhing test (analgesic activity)
- condition.parameters: Mus musculus, po, read-out: ED50 p.o.
readout.kind: ED50

| compound | reported.value |
| --- | --- |
| CCCCC1C(=O)N(c2ccccc2)N(c2ccccc2)C1=O [phenylbutazon, reference compound] | 60 mg/kg |
| O=[N+]([O-])c1cnn2cnc3ccccc3c12 [Example 1, 1-Nitropyrazolo[1,5-c]quinazoline] | 50 mg/kg |
| CC(=O)Nc1ccc(O)cc1 [paracetamole, p-hydroxyacetanilide, reference compound] | 180 mg/kg |
| CC(=O)Nc1cnn2c1-c1ccccc1N(C(C)=O)C2(C)C | 25 mg/kg |

----------
Below, each of the compounds is paired with its reported LD50 value.
- test: in vivo
- condition.parameters: printed under the reference substance in Table III
readout.kind: LD50 (mg/kg)

| compound | readout.kind | reported.value |
| --- | --- | --- |
| CCCN(CCC)C(=O)C(CCC(=O)O)NC(=O)c1ccccc1 (racemic) [proglumide, reference compound] | LD50 | 2780 |
| CN/C(=N/CCSCc1nc[nH]c1C)NC#N [cimetidine, reference compound] | LD50 | 470 |
